All values here come from patent US20190153108A1.

- MEASUREMENT TARGET: human Epidermal Growth Factor Receptor (huEGFR) over-expressed in mcl-1-/- mouse embryonic fibroblasts (human, UniProt P00533 25-1210)
- ASSAY REMARKS: cell-based or functional assay
// values below are reported huEGFR^+ mcl-1^-/- MEF EC50
Report the value in µM with no unit label.

BINDER	huEGFR^+ mcl-1^-/- MEF EC50 / µM
AbG-ZZ (antibody, V domains shown, synthon ZZ on reduced interchain Cys) VH: EVQLQESGPGLVKPSQTLSLTCTVSGYSISNDFAWNWIRQLPGKGLEWMGYISYKGNTRYQPSLKSRITISRDTSKNQFFLKLNSVTAADTATYYCVTASRGLPYWGQGTLVTVSS VL: DIQMTQSPSSMSVSVGDRVTITCHSSQDITYNIGWLQQKPGKSFKGLIYHGANLDDGVPSRFSGSGSGTDYTLTISSLQPEDFATYYCVQYDEFPWTFGGGTKLEIKR	0.068

Q) Look up huEGFR^+ mcl-1^-/- MEF EC50 of AbB-SE (antibody, V domains shown, synthon SE on reduced interchain Cys) VH: EVQLQESGPGLVKPSQTLSLTCTVSGYSISNDFAWNWIRQPPGKGLEWMGYISYKGNTRYQPSLKSRITISRDTSKNQFFLKLNSVTAADTATYYCVTASRGFPWWGQGTLVTVSS VL: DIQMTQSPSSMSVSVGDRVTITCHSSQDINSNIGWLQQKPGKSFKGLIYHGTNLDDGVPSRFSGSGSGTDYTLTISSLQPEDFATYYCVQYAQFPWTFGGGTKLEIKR and report it.
A) 0.039
